- method: compound fluorescence in toxin protease inhibitor counterscreen, primary screen, artefact control for toxin protease inhibitor project, biochemical, multiplex microsphere, HTS (AID 624483)
- condition.description: compound autofluorescence counterscreen, microsphere flow cytometry
The whole screen tested about 360,000 compounds, of which about 11,000 (3.1%) were called active. Not shown: some 2% with an inconclusive outcome. No stated cut-off is given here; in the data, active means fluorescence intensity above about 16000; inconclusive means no clear call, values can overlap the other calls; inactive means below that. The sample holds actives, similar compounds and a random draw of the others, so the mix is not that of the screen.
Returns: one label drawn from active, inactive

>>> category_label("Nc1ccc(SCCN2C(=O)c3ccccc3C2=O)cc1")
"active"
>>> category_label("CCN(CC)c1nc(-c2ccccc2)cc(C(F)(F)F)c1C#N")
"inactive"
>>> category_label("COc1ccc(C(NC(=O)C2CCN(CCCc3ccccc3)CC2)c2cccs2)cc1 (configuration not stated)")
"inactive"
>>> category_label("COc1ccc(-c2cc(NC=O)c3ncc(-c4cc(OC)c(OC)c(OC)c4)n3c2)c(OC)c1")
"inactive"
>>> category_label("Cn1c(=O)cc(OCCCC(=O)N2CCN(Cc3ccc4c(c3)OCO4)CC2)c2ccccc21")
"inactive"
>>> category_label("Cc1ccc(NC(=O)C2(N3CCC3=O)CCCCC2)cc1")
"inactive"
>>> category_label("O=S(=O)(NC1CC2CCC1C2)c1ccc(Cl)cc1 (configuration not stated)")
"inactive"
>>> category_label("O=C(OCCN1C(=O)c2ccccc2C1=O)Oc1ccccc1")
"inactive"
>>> category_label("Cn1c(=O)cc(OCCCC(=O)N2CCN(c3ccccn3)CC2)c2ccccc21")
"active"
>>> category_label("CCOC(=O)Cc1csc(SCC(=O)NC(C)C23CC4CC(CC(C4)C2)C3)n1 (configuration not stated)")
"inactive"

What outcome does the record of this test show for OCCC#Cc1ccc(N2C(c3ccsc3)=Cc3ccc(F)cc3C2c2c[nH]c3ccccc23)cc1 (configuration not stated) ?
inactive

What outcome does the record of this test show for `CC1(C)OC(=O)C2=C(C[C@@H](C3CC3)O[C@H]2CCc2cccc(Cl)c2)O1` ?
inactive

What outcome does the record of this test show for `COC(=O)c1ccc(S(=O)(=O)N(CCO)Cc2ccccc2)n1C` ?
inactive

What outcome does the record of this test show for `OC[C@H]1O[C@@H](c2nc(-c3nc(-c4ccc(F)cc4)no3)cs2)[C@H](O)[C@@H](O)[C@H]1O` ?
inactive

What outcome does the record of this test show for NCCCCC(C(=O)O)N(C(=O)OCc1ccccc1)C(=O)OCc1ccccc1 (configuration not stated) ?
inactive

What outcome does the record of this test show for CCOP(=O)(OCC)C(Cc1ccccc1)N=C(c1ccccc1)c1ccccc1 (configuration not stated) ?
inactive

What outcome does the record of this test show for `CNc1cncc(-c2cccc(C(=O)N3CCOCC3)c2)n1` ?
inactive

* * *

- method: compound fluorescence in toxin protease inhibitor counterscreen, primary screen, artefact control for toxin protease inhibitor project, biochemical, multiplex microsphere, HTS (AID 624483)
- condition.description: compound autofluorescence counterscreen, microsphere flow cytometry; hits give high values
Screen size: about 360,000 compounds; about 11,000 (3.1%) were called active. About 2% were inconclusive and are not listed. Shown is part of a subset that was picked to be rich in actives.
result.type: fluorescence intensity
A bare number is all that is needed in reply.

The cases that follow already have their fluorescence intensity on record.
>>> reading("COc1ccc(S(=O)(=O)N(C)CC(=O)Nc2ccc3c(c2)OCCO3)cc1OC")
3400
>>> reading("CC(C)c1nc(-c2ccccn2)no1")
21700
>>> reading("COc1cccc(-c2cnc3c(NC(C)=O)cc(-c4cc(F)ccc4OC)cn23)c1")
2980
>>> reading("O=C(Oc1ccc(-c2nc(-c3ccccn3)no2)cc1)c1ccccc1")
3190
>>> reading("N=C1c2ccccc2-c2ccccc21")
3590

# get_value(readout='fluorescence intensity', item= `CCOC(=O)c1cc2cc(OC)ccc2n1C1CCN(C)CC1` )
5150

# get_value(readout='fluorescence intensity', item= `COc1ccc2nc(-c3ccccn3)ccc2c1` )
4000

# get_value(readout='fluorescence intensity', item= Cc1cccc(CN2CCN(C3CN(Cc4ccccc4)S(=O)(=O)C3)CC2)c1 (stereo not drawn) )
5880
